test: Caspase-3/7 induction in CHO-K1 cells by small molecules, qHTS assay (AID 1346980); conditions: CHO-K1 caspase-3/7 induction, Caspase-Glo luminescence, 17 h; series mostly up to 92.4 µM; further: on the % scale 0 is the no-effect control and ±100 the full control effect; nearly all actives have a fitted effect of over 15% in size
Calls of active or inactive are those of the source. The call rests on the fitted dose curve; in most records, active means well fitted activation curve with a large enough effect in the repeat runs; inconclusive means weak or mixed curves; inactive means flat fitted curve, though single readings scatter.

{"MOLECULE_SMILES": "CCOC(=O)COc1cc(-c2nn(C)c(OC(F)F)c2Cl)c(F)cc1Cl", "caspase-3/7 activation": "inactive"}
{"MOLECULE_SMILES": "CCOP(O)OCC", "caspase-3/7 activation": "inactive"}
{"MOLECULE_SMILES": "CO/C=C(/C(=O)OC)c1ccccc1COc1cccc(C(F)(F)F)n1", "caspase-3/7 activation": "inactive"}
{"MOLECULE_SMILES": "C=CCN1CC[C@]23c4c5ccc(O)c4O[C@H]2C(=O)CC[C@@]3(O)[C@H]1C5", "caspase-3/7 activation": "inactive"}
{"MOLECULE_SMILES": "CCc1ccc(C(=O)NN(C(=O)c2cc(C)cc(C)c2)C(C)(C)C)cc1", "caspase-3/7 activation": "inactive"}
{"MOLECULE_SMILES": "COc1c(C(C)(C)C)cc([N+](=O)[O-])c(C)c1[N+](=O)[O-]", "caspase-3/7 activation": "inactive"}

====

target: Estrogen receptor (Homo sapiens); assay: qHTS assay to identify small molecule agonists of the estrogen receptor alpha (ER-alpha) signaling pathway using the BG1 cell line (AID 743079); conditions: BG1Luc4E2 cells, ERE-luciferase agonist, 22 h; series mostly up to 70.3 µM; further: on the % scale 0 is the no-effect control and ±100 the full control effect; nearly all actives have a fitted effect of over 20% in size
Results filed as inconclusive are left out. The source made the active and inactive calls. The call rests on the fitted dose curve; in most records, active means well fitted activation curve with a large enough effect in the repeat runs; inconclusive means weak or mixed curves, or effect the other way; inactive means no such curve, though single readings can be large or run the other way.

{"COMPOUND": "COC(=O)C(Cl)C(=O)OC", "outcome": "inactive"}
{"COMPOUND": "c1cc2ccc3cccc4ccc(c1)c2c34", "outcome": "inactive"}
{"COMPOUND": "COc1c(C(C)(C)C)cc([N+](=O)[O-])c(C)c1[N+](=O)[O-]", "outcome": "inactive"}
{"COMPOUND": "Cc1ccc2ccccc2c1", "outcome": "inactive"}
{"COMPOUND": "N#CCC#N", "outcome": "inactive"}
{"COMPOUND": "CC(C)N(C(=O)COc1nnc(C(F)(F)F)s1)c1ccc(F)cc1", "outcome": "inactive"}
{"COMPOUND": "O=C(C(Cl)(Cl)Cl)C(Cl)(Cl)Cl", "outcome": "inactive"}
{"COMPOUND": "C=CCC1([C@H](C)CCC)C(=O)NC(=O)NC1=O", "outcome": "inactive"}
{"COMPOUND": "CNC(C)Cc1ccccc1OC (centres undefined)", "outcome": "inactive"}
{"COMPOUND": "CCOC(=O)C(Cl)C(C)=O (centres undefined)", "outcome": "inactive"}
{"COMPOUND": "C=CC(=O)OCC(C)O (centres undefined)", "outcome": "inactive"}
{"COMPOUND": "O=S(=O)(O)C(F)(F)C(F)(F)C(F)(F)C(F)(F)F", "outcome": "inactive"}
{"COMPOUND": "CCN(C)N=O", "outcome": "inactive"}
{"COMPOUND": "COc1nn(CSP(=S)(OC)OC)c(=O)s1", "outcome": "inactive"}
{"COMPOUND": "COP(=S)(Oc1cc(Cl)c(Br)cc1Cl)c1ccccc1 (centres undefined)", "outcome": "inactive"}
{"COMPOUND": "CO/N=C(/C(=O)OC)c1ccccc1COc1ccccc1C", "outcome": "inactive"}
{"COMPOUND": "COCC(C)N(C(=O)CCl)c1c(C)csc1C (centres undefined)", "outcome": "inactive"}
{"COMPOUND": "Nc1ccc(N=Nc2ccc(-c3ccc(N=Nc4c(S(=O)(=O)O)cc5cc(S(=O)(=O)O)c(N=Nc6ccccc6)c(O)c5c4N)cc3)cc2)c(N)c1", "outcome": "inactive"}
{"COMPOUND": "CC(=O)C(C)(C)C", "outcome": "inactive"}
{"COMPOUND": "Nc1nc(=S)[nH][nH]1", "outcome": "inactive"}
{"COMPOUND": "Cc1ccccc1C(=O)Nc1cccc(OC(C)C)c1", "outcome": "inactive"}
{"COMPOUND": "CC(O)(CS(=O)(=O)c1ccc(F)cc1)C(=O)Nc1ccc(C#N)c(C(F)(F)F)c1 (centres undefined)", "outcome": "inactive"}
{"COMPOUND": "O=NN1CCNCC1", "outcome": "inactive"}
{"COMPOUND": "COC(=O)c1cncn1C(C)c1ccccc1 (centres undefined)", "outcome": "inactive"}
{"COMPOUND": "O=[N+]([O-])c1ccccc1CCl", "outcome": "inactive"}
{"COMPOUND": "CCCCC(CC)COP(=O)(Oc1ccccc1)Oc1ccccc1 (centres undefined)", "outcome": "inactive"}
{"COMPOUND": "CC(C)=CCOc1c2occc2cc2ccc(=O)oc12", "outcome": "inactive"}
{"COMPOUND": "CC(=O)CCC(C)=O", "outcome": "inactive"}
{"COMPOUND": "II", "outcome": "inactive"}

====

assay: qHTS assay to test for compound auto fluorescence at 590 nm (red) in HEK293 cell free culture (AID 720683); conditions: cell-free medium autofluorescence, Ex540/Em590 red; series mostly up to 91.3 µM; further: on the % scale 0 is the no-effect control and ±100 the full control effect
Active and inactive are the calls of the source. Calls come from the whole dose curve; as a rule, active = well fitted curve in the direction sought with a large enough effect in the repeat runs; inconclusive = weak or mixed curves; inactive = flat fitted curve, though single readings scatter.

{"COMPOUND": "CCCCCCCCCC(=O)O[C@H]1CC[C@H]2[C@@H]3CCC4=CC(=O)CC[C@@H]4[C@H]3CC[C@]12C", "fluorescence, % of fluorescent control": "inactive"}
{"COMPOUND": "CCOP(=S)(OCC)SCSCC", "fluorescence, % of fluorescent control": "inactive"}
{"COMPOUND": "CCC(Br)(CC)C(=O)NC(N)=O", "fluorescence, % of fluorescent control": "inactive"}
{"COMPOUND": "CO[C@@H]1[C@H](OC(=O)NC(=O)CCl)CC[C@]2(CO2)[C@H]1[C@@]1(C)O[C@@H]1CC=C(C)C", "fluorescence, % of fluorescent control": "-0.369% [at 18.6 µM] (inactive)"}
{"COMPOUND": "II", "fluorescence, % of fluorescent control": "inactive"}
{"COMPOUND": "Cn1cc[n+](C)c1 (tested in a mixture with another compound)", "fluorescence, % of fluorescent control": "inactive"}
{"COMPOUND": "Cl/C=C\\Cl", "fluorescence, % of fluorescent control": "inactive"}
{"COMPOUND": "CC1(C)CCC(Cc2ccc(Cl)cc2)C1(O)Cn1cncn1 (stereo not given)", "fluorescence, % of fluorescent control": "inactive"}
{"COMPOUND": "CCOP(=S)(OCC)Oc1nc(Cl)c(Cl)cc1Cl", "fluorescence, % of fluorescent control": "inactive"}
{"COMPOUND": "O=Cc1ccc(Cl)cc1Cl", "fluorescence, % of fluorescent control": "inactive"}
{"COMPOUND": "C=COC(C)=O", "fluorescence, % of fluorescent control": "inactive"}
{"COMPOUND": "CC(=O)[C@H]1CC[C@H]2[C@@H]3CC[C@H]4C[C@](C)(O)CC[C@]4(C)[C@H]3CC[C@]12C", "fluorescence, % of fluorescent control": "inactive"}
{"COMPOUND": "COC(=O)C(C)N(C(=O)Cc1ccccc1)c1c(C)cccc1C (stereo not given)", "fluorescence, % of fluorescent control": "inactive"}
{"COMPOUND": "CO/N=C(/C(=O)OC)c1ccccc1COc1ccccc1C", "fluorescence, % of fluorescent control": "inactive"}
{"COMPOUND": "ClCc1ccccc1", "fluorescence, % of fluorescent control": "inactive"}
{"COMPOUND": "C=C(C#N)CCC#N", "fluorescence, % of fluorescent control": "inactive"}
{"COMPOUND": "CC/C(=N\\OC/C=C/Cl)C1=C(O)CC(C2CCOCC2)CC1=O (stereo not given)", "fluorescence, % of fluorescent control": "inactive"}
{"COMPOUND": "CC(C)(OO)c1ccccc1", "fluorescence, % of fluorescent control": "inactive"}
{"COMPOUND": "O=[Se]=O", "fluorescence, % of fluorescent control": "inactive"}
{"COMPOUND": "CCCCCC[N+](=O)[O-]", "fluorescence, % of fluorescent control": "inactive"}
{"COMPOUND": "C=CC(=O)OCC(C)O (stereo not given)", "fluorescence, % of fluorescent control": "inactive"}
{"COMPOUND": "OCCCBr", "fluorescence, % of fluorescent control": "inactive"}
{"COMPOUND": "CC1(C)[C@H](C=C(Cl)Cl)[C@@H]1C(=O)O[C@@H](C#N)c1cccc(Oc2ccccc2)c1", "fluorescence, % of fluorescent control": "inactive"}
{"COMPOUND": "Brc1ccccc1", "fluorescence, % of fluorescent control": "inactive"}
{"COMPOUND": "CC(C)N(C(=O)COc1nnc(C(F)(F)F)s1)c1ccc(F)cc1", "fluorescence, % of fluorescent control": "inactive"}
{"COMPOUND": "COP(=S)(OC)Oc1cc(Cl)c(I)cc1Cl", "fluorescence, % of fluorescent control": "inactive"}
{"COMPOUND": "COP(=S)(OC)Oc1ccc([N+](=O)[O-])cc1Cl", "fluorescence, % of fluorescent control": "inactive"}
{"COMPOUND": "NC(=O)CI", "fluorescence, % of fluorescent control": "inactive"}
{"COMPOUND": "C=CC(=O)OCC(C)C", "fluorescence, % of fluorescent control": "inactive"}
{"COMPOUND": "CCCCc1c(C)nc(NCC)nc1OS(=O)(=O)N(C)C", "fluorescence, % of fluorescent control": "inactive"}
{"COMPOUND": "COC(=O)c1cncn1C(C)c1ccccc1 (stereo not given)", "fluorescence, % of fluorescent control": "inactive"}
{"COMPOUND": "O=C1C(Cl)C(CCl)CN1c1cccc(C(F)(F)F)c1 (stereo not given)", "fluorescence, % of fluorescent control": "inactive"}
{"COMPOUND": "COCC(C)N(C(=O)CCl)c1c(C)csc1C (stereo not given)", "fluorescence, % of fluorescent control": "inactive"}
{"COMPOUND": "C/C(=C\\c1ccccc1)[N+](=O)[O-]", "fluorescence, % of fluorescent control": "inactive"}
{"COMPOUND": "c1cc2ccc3cccc4ccc(c1)c2c34", "fluorescence, % of fluorescent control": "inactive"}
{"COMPOUND": "O=C1CN=C(c2ccccc2)c2cc(Cl)ccc2N1CC1CC1", "fluorescence, % of fluorescent control": "inactive"}
{"COMPOUND": "CC(C)O.CC(C)O.OCCN(CCO)CCO.OCCN(CCO)CCO.[Ti]", "fluorescence, % of fluorescent control": "inactive"}
{"COMPOUND": "CC[C@H]1C[C@H]2[C@@H]3CCC4=CC(=O)CC[C@@H]4[C@H]3CC[C@]2(C)[C@H]1O", "fluorescence, % of fluorescent control": "inactive"}
{"COMPOUND": "CCCCN(N=O)C(=N)N[N+](=O)[O-]", "fluorescence, % of fluorescent control": "inactive"}
{"COMPOUND": "CCOP(=O)(OCC)Oc1ccc([N+](=O)[O-])cc1", "fluorescence, % of fluorescent control": "inactive"}
{"COMPOUND": "CC(C)(C)c1cc([N+](=O)[O-])cc([N+](=O)[O-])c1O", "fluorescence, % of fluorescent control": "inactive"}
{"COMPOUND": "IC(I)=C(I)I", "fluorescence, % of fluorescent control": "inactive"}
{"COMPOUND": "CCC(COC(=O)c1cc(OC)c(OC)c(OC)c1)(c1ccccc1)N(C)C (stereo not given)", "fluorescence, % of fluorescent control": "inactive"}
{"COMPOUND": "CCOC(=O)COc1cc(-c2nn(C)c(OC(F)F)c2Cl)c(F)cc1Cl", "fluorescence, % of fluorescent control": "inactive"}
{"COMPOUND": "COP(=O)(OC)O/C(=C/Cl)c1cc(Cl)c(Cl)cc1Cl", "fluorescence, % of fluorescent control": "inactive"}
{"COMPOUND": "ClP(Cl)(Cl)(Cl)Cl", "fluorescence, % of fluorescent control": "inactive"}
{"COMPOUND": "CC(=O)NC1CCSC1=O (stereo not given)", "fluorescence, % of fluorescent control": "inactive"}
{"COMPOUND": "Nc1nc(N)nc(N)n1", "fluorescence, % of fluorescent control": "inactive"}
{"COMPOUND": "CS/C(C)=N/OC(=O)N(C)SN(C)C(=O)O/N=C(\\C)SC", "fluorescence, % of fluorescent control": "inactive"}
{"COMPOUND": "CCOP(=O)(OCC)SCCSCC", "fluorescence, % of fluorescent control": "inactive"}
{"COMPOUND": "[O-][Cl+]O", "fluorescence, % of fluorescent control": "inactive"}
{"COMPOUND": "CCOS(C)(=O)=O", "fluorescence, % of fluorescent control": "inactive"}
{"COMPOUND": "CCCCN=C=O", "fluorescence, % of fluorescent control": "inactive"}
{"COMPOUND": "O=C(NC(=O)c1c(F)cccc1F)Nc1cc(Cl)c(Oc2ncc(C(F)(F)F)cc2Cl)c(Cl)c1", "fluorescence, % of fluorescent control": "inactive"}
{"COMPOUND": "CCCCC(O)(Cn1cncn1)c1ccc(Cl)cc1Cl (stereo not given)", "fluorescence, % of fluorescent control": "inactive"}

Values compiled from PubChem BioAssay (Tox21).
